molecular target: Human recombinant MMP-14 (Homo sapiens); construct: The catalytic domain enzyme was expressed in E. coli inclusion bodies, solubilized in urea; made in house; experiment: In vitro MMP inhibition, IC50 determination (fluorogenic substrate I); assay type: biochemical; conditions: value outside parentheses
This section presents compounds with their documented pIC50 values.
Note on pIC50: it is the negative log10 of concentration, concentration in mol/L.

Example results:
>>> numeric_value("O=C(NO)C1(S(=O)(=O)c2ccc(OCCSc3nc4ccc(Cl)cc4o3)cc2)CCOCC1 [Example 502]")
5.25
>>> numeric_value("COc1ccc(CC(=O)NCCOc2ccc(S(=O)(=O)C3(C(=O)NO)CCOCC3)cc2)cc1 [Example 616]")
5.71
>>> numeric_value("O=C(NCCOc1ccc(S(=O)(=O)C2(C(=O)NO)CCOCC2)cc1)c1cc2ccccc2[nH]1 [Example 599]")
7.24

Problem: Look up pIC50 with Human recombinant MMP-14 (Homo sapiens) for this compound: COc1ccc(C(=O)CCCOc2ccc(S(=O)(=O)C3(C(=O)NO)CCOCC3)cc2)cc1 [Example 491]
Result: 6.01

Problem: How about this compound: O=C(NO)C1(S(=O)(=O)c2ccc(OCCCn3nnc(-c4ccc(C(F)(F)F)cc4)n3)cc2)CCN(CC(F)(F)F)CC1 [Example 657]
Result: 5.46

* * *

This section presents compounds with their documented IC50 values.
Molecular target: Human recombinant MMP-2 (Homo sapiens, UniProt P08253)
Construct: made in house; host or cells: MMP-2-transfected p2AHT2 cells
Sequence (P08253 110-660): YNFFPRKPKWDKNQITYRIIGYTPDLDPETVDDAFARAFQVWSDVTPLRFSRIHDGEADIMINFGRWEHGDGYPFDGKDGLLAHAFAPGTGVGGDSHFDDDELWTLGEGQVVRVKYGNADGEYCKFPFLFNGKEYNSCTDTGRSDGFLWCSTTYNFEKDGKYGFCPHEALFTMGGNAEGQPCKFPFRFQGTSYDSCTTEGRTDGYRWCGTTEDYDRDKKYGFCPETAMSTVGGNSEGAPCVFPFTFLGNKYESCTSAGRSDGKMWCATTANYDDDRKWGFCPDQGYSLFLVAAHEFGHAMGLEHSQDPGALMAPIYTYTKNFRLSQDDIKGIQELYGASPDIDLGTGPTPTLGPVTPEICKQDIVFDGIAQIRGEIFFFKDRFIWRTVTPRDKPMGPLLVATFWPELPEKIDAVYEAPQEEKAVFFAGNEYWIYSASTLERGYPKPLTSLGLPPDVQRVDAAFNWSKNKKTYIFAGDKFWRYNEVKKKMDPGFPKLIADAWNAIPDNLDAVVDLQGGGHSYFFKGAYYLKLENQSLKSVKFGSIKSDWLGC
Experiment: In vitro MMP inhibition, IC50 determination (fluorogenic substrate I)
Assay type: biochemical
Details: substrate (I) 4 μM, room temperature; values not in parenthesis
Structures can show the parent of a compound that is named as a salt.
All answers are understood in nM, so give the number only.

>>> numeric_value("O=C1c2ccccc2C(=O)N1CCCOc1ccc(S(=O)(=O)C2(C(=O)NO)CCOCC2)cc1")
450
>>> numeric_value("Cc1ccccc1-c1nnc(CCCOc2ccc(S(=O)(=O)C3(C(=O)NO)CCOCC3)cc2)o1")
218
>>> numeric_value("COCCN1CCC(C(=O)NO)(S(=O)(=O)c2ccc(OCCCc3cc(-c4ccc(F)cc4F)cs3)cc2)CC1 [Example 47, Hydrochloride]")
18.2
>>> numeric_value("O=C(NO)C1(S(=O)(=O)c2ccc(OCCCc3nc(-c4ccc(OC(F)(F)F)cc4)no3)cc2)CCN(C2CC2)CC1 [Example 51, Hydrochloride]")
252
>>> numeric_value("O=C1c2ccccc2C(=O)N1CCCCc1ccc(S(=O)(=O)C2(C(=O)NO)CCOCC2)cc1")
600

Problem: Fill in the blank: the reported IC50 of `O=C(NO)C1(S(=O)(=O)c2ccc(OCCc3cccc(-c4ccccn4)c3)cc2)CCOCC1` is ____.
Result: 112

Problem: How about this compound: `COCCN1CCC(C(=O)NO)(S(=O)(=O)c2ccc(OCCCc3nc(-c4ccc(OC(F)(F)F)cc4)no3)cc2)CC1`
Result: 100

Problem: How about this compound: `O=C(NO)C1(S(=O)(=O)c2ccc(OCCCSc3nc4ccccc4o3)cc2)CCOCC1`
Result: 16

Problem: How about this compound: CN(C)c1ccc(NC(=O)CCCCOc2ccc(S(=O)(=O)C3(C(=O)NO)CCOCC3)cc2)cc1 [Example 20, Monohydrochloride]
Result: 1.8

Problem: How about this compound: `O=C(OCCCCOc1ccc(S(=O)(=O)C2(C(=O)NO)CCOCC2)cc1)N1CCc2ccccc2C1`
Result: 36.6

Problem: How about this compound: CCN1CCC(C(=O)NO)(S(=O)(=O)c2ccc(OCCCc3nc(-c4ccc(OC(F)(F)F)cc4)no3)cc2)CC1 [Example 41, Hydrochloride]
Result: 357

* * *

molecular target: Human recombinant MMP-2 (Homo sapiens, UniProt P08253); construct: made in house; host or cells: MMP-2-transfected p2AHT2 cells; experiment: In vitro MMP inhibition, IC50 determination (fluorogenic substrate I); assay type: biochemical; conditions: value outside parentheses (Ki in parenthesis)
This section presents compounds with their documented IC50 values.
All answers are understood in nM, so give the number only.

Example results:
>>> numeric_value("Cc1ccc(C(=O)NCCCOc2ccc(S(=O)(=O)C3(C(=O)NO)CCOCC3)cc2)c(C)c1")
940
>>> numeric_value("O=C(NO)C1(S(=O)(=O)c2ccc(OCCCS(=O)(=O)C3CCCCC3)cc2)CCOCC1")
2.3

Now let's try a different one.
Problem: Fill in the blank: the reported IC50 of COc1ccc(C(O)CCCCOc2ccc(S(=O)(=O)C3(C(=O)NO)CCOCC3)cc2)cc1 (stereo not shown) is ____.
Result: 3.1

* * *

biological target: Human recombinant MMP-13 (Homo sapiens, UniProt P45452); construct: made in house; host or cells: baculovirus / insect cells; assay: In vitro MMP inhibition, Ki determination (fluorogenic substrate II); format: biochemical; conditions: value in parentheses
Quantity: Ki (nM)
All answers are understood in nM, so give the number only.

>>> numeric_value("O=C(NO)C1(S(=O)(=O)c2ccc(OCCCc3cccc(-c4csc5ccccc45)c3)cc2)CCOCC1")
57.6

Problem: Fill in the blank: the reported Ki of `O=C(NO)C1(S(=O)(=O)c2ccc(OCCCc3cccc(-c4ccc5ccccc5c4)c3)cc2)CCOCC1` is ____.
Result: 89.1

Problem: How about this molecule: `Cc1ccc(NC(=O)CCCOc2ccc(S(=O)(=O)C3(C(=O)NO)CCOCC3)cc2)cc1I`
Result: 0.044

Problem: How about this molecule: `COCCN1CCC(C(=O)NO)(S(=O)(=O)c2ccc(OCCNC(=O)c3cc4ccccc4o3)cc2)CC1`
Result: 0.259

Problem: How about this molecule: `COCCN1CCC(C(=O)NO)(S(=O)(=O)c2ccc(OCCc3ccc(-c4ccc(C#N)cc4)cc3)cc2)CC1`
Result: 0.23

Problem: How about this molecule: `CN1CCC(C(=O)NO)(S(=O)(=O)c2ccc(SCCNC(=O)c3cc4ccccc4o3)cc2)CC1`
Result: 3.4

* * *

molecular target: Human recombinant MMP-2 (Homo sapiens, UniProt P08253); construct: made in house; host or cells: MMP-2-transfected p2AHT2 cells; test: In vitro MMP inhibition, IC50 determination (fluorogenic substrate I); type: biochemical; conditions: value outside parenthesis
This section presents compounds with their documented pIC50 values.
Note on pIC50: it is the negative log10 of concentration, concentration in mol/L.

Problem: Fill in the blank: the reported pIC50 of `O=C(NO)C1(S(=O)(=O)c2ccc(OCCCc3nc(-c4ccc([N+](=O)[O-])cc4)no3)cc2)CCOCC1` is ____.
Result: 8.39

* * *

Biological target: Human recombinant MMP-2 (Homo sapiens, UniProt P08253)
Construct: made in house; host or cells: MMP-2-transfected p2AHT2 cells
Sequence (P08253 110-660): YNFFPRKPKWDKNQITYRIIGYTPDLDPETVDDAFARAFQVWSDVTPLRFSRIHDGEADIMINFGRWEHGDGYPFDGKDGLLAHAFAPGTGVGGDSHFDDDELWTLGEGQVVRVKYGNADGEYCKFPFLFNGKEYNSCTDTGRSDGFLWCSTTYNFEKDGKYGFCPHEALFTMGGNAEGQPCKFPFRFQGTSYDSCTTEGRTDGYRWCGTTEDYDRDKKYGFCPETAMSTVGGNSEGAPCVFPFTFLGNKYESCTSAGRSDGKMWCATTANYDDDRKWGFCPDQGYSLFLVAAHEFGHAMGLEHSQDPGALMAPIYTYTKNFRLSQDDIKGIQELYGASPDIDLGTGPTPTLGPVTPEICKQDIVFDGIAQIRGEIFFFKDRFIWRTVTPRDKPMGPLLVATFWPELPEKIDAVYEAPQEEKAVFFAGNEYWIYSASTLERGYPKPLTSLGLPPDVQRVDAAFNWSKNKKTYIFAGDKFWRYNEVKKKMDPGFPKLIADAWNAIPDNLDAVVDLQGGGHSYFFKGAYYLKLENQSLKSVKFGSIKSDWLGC
Experiment: In vitro MMP inhibition, IC50 determination (fluorogenic substrate I)
Assay type: biochemical
Conditions: value outside parenthesis
pIC50: −log10 of the molar value.
Decision: pIC50 >= 7 yields YES, all other cases yield NO.

These recorded examples may help you get a feel for the data.
>>> label("O=C1CN(c2ccccc2Cl)C(=O)N1CCCOc1ccc(S(=O)(=O)C2(C(=O)NO)CCOCC2)cc1 [Example 224]")
"NO"
>>> label("O=C(O)CCCOc1ccc(S(=O)(=O)C2(C(=O)NO)CCOCC2)cc1 [Example 273]")
"NO"
>>> label("O=C(NO)C1(S(=O)(=O)c2ccc(OCCCS(=O)(=O)N3CCC(Oc4ccc(C(F)(F)F)cc4)CC3)cc2)CCOCC1 [Example 279]")
"YES"
>>> label("O=C(CCCOc1ccc(S(=O)(=O)C2(C(=O)NO)CCOCC2)cc1)Nc1cccc(OC(F)(F)F)c1 [Example 181]")
"YES"
>>> label("O=C(NO)C1(S(=O)(=O)c2ccc(OCCCc3cccc(-c4ccc(Cl)c(Cl)c4)c3)cc2)CCOCC1 [Example 169]")
"NO"

Problem: hey, is pIC50 for this one >= 7? COCCN1CCC(C(=O)NO)(S(=O)(=O)c2ccc(OCCCn3nnc(-c4ccc(SC)cc4)n3)cc2)CC1 [Example 130]
Result: YES

Problem: How about this molecule: CN(C)c1c(F)cc(-c2noc(CCCOc3ccc(S(=O)(=O)C4(C(=O)NO)CCOCC4)cc3)n2)cc1F [Example 251]
Result: NO

Problem: How about this molecule: NC(=O)c1cccc(-c2noc(CCCOc3ccc(S(=O)(=O)C4(C(=O)NO)CCN(C5CC5)CC4)cc3)n2)c1 [Example 129]
Result: YES
